# target: human (hACC2) (Homo sapiens)
# protocol-notes: In vitro ACC inhibition assay (ADP-Glo), hACC2
# Assay type: biochemical
# assay-setup: Table 2a, 5 nM ACC2, 20 μM ATP, 20 μM acetyl-CoA
pIC50: −log10 of the molar value.
List of pIC50 values.

query: Param item = COc1ccc(F)cc1[C@H](Cn1c(=O)n(C(C)(C)C(=O)NC(C)C)c(=O)c2c(C)c(-n3nccn3)sc21)OC1CCC(=O)CC1 ; retrieve measured pIC50.
result: 8.00 to 8.30

query: Param item = COc1ccc(F)cc1[C@H](Cn1c(=O)n([C@@H](C)C(=O)N(C)C(C)C)c(=O)c2c(C)c(-n3nccn3)sc21)OC1CCC(=O)CC1 ; retrieve measured pIC50.
result: 8.00 to 8.30

query: Param item = C=CCO[C@@H](Cn1c(=O)n(C(C)(C)C(=O)NC(C)C)c(=O)c2c(C)c(-n3nccn3)sc21)c1cc(F)ccc1OC ; retrieve measured pIC50.
result: 8.30 to 9.00

query: Param item = COc1ccc(F)cc1[C@H](Cn1c(=O)n(C(C)(C)C(=O)N2CC(O)C2)c(=O)c2c(C)c(-n3nccn3)sc21)OCC(C)C ; retrieve measured pIC50.
result: 8.00 to 8.30

Others:
query: Param item = CCc1ccc(F)cc1[C@H](Cn1c(=O)n(C(C)(C)C(=O)NC(C)C)c(=O)c2c(C)c(-n3nccn3)sc21)OCCO ; retrieve measured pIC50.
result: 8.30 to 9.00

query: Param item = COc1ccc(F)cc1[C@H](Cn1c(=O)n(C(C)(C)C(=O)NC2CCC2)c(=O)c2c(C)c(-n3nccn3)sc21)OCCC(C)=O ; retrieve measured pIC50.
result: 8.30 to 9.00

* * *

List of IC50 values.
# target: human (hACC2) (Homo sapiens, UniProt O00763)
# Sequence (O00763 whole entry): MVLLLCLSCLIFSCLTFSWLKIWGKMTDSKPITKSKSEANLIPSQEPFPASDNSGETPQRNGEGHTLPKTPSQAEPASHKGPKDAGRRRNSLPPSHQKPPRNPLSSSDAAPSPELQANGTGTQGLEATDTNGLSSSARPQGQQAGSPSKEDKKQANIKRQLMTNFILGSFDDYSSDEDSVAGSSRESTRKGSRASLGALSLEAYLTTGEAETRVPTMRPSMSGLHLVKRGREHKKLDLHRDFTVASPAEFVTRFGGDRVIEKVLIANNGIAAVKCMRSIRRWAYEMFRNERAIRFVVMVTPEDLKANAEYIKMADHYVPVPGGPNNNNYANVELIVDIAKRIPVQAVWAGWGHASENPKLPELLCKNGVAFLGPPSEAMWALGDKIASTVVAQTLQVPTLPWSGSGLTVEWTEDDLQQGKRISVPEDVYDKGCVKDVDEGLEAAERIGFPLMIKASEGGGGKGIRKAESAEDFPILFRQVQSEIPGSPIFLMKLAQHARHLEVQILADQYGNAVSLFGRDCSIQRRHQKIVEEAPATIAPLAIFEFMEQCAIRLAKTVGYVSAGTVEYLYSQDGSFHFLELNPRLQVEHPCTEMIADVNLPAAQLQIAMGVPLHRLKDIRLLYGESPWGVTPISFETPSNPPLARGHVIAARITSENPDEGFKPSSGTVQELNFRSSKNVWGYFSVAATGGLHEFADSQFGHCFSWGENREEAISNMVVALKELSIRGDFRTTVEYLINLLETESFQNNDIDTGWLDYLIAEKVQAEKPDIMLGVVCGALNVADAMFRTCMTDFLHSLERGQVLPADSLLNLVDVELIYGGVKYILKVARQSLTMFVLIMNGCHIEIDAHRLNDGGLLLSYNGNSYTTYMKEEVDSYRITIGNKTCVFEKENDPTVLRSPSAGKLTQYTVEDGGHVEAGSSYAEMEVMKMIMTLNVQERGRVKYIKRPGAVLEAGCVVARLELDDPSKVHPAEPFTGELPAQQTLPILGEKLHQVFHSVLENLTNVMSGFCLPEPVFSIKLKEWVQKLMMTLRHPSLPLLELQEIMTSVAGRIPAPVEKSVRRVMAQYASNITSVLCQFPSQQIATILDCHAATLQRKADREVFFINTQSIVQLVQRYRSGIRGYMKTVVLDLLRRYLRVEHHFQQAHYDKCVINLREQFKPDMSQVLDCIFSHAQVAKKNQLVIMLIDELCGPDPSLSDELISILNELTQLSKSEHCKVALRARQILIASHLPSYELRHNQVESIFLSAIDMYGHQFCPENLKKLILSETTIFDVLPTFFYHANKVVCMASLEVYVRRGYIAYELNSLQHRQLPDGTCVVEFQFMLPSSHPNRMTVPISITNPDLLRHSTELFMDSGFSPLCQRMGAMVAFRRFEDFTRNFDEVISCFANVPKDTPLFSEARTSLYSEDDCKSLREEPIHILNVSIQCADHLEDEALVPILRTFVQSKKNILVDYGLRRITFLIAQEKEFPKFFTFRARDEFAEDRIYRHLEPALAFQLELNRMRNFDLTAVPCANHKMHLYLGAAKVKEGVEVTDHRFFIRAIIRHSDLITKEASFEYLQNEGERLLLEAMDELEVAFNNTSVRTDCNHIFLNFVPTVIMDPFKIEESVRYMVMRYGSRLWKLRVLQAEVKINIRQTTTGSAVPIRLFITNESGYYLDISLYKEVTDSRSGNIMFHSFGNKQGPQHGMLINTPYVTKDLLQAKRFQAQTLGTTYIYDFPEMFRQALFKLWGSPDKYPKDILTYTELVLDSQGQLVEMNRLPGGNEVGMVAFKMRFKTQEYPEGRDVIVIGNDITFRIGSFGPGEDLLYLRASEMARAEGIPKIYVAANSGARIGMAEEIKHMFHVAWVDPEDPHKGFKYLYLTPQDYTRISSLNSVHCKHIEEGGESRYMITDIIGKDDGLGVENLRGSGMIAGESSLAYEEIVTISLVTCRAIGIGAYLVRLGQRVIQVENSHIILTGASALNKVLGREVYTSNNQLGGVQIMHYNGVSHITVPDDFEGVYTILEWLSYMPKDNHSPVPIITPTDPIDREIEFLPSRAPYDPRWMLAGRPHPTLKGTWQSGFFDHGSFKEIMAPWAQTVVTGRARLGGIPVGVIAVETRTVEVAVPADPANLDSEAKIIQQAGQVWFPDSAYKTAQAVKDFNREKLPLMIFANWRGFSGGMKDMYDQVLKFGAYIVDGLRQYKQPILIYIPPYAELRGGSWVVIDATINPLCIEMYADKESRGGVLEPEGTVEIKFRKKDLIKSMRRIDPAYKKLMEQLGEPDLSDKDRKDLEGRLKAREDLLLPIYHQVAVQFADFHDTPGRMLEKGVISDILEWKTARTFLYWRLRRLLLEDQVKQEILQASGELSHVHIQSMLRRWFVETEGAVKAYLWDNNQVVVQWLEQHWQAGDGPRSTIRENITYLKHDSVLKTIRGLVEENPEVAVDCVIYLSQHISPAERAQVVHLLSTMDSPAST
# protocol-notes: In vitro ACC inhibition assay (ADP-Glo), hACC2
# Type: biochemical
# assay-setup: Table 2a, 5 nM ACC2, 20 μM ATP, 20 μM acetyl-CoA

Illustrative cases are given below, each with its answer.
query: Request: IC50, test system human (hACC2) (Homo sapiens, UniProt O00763), entry COc1ccccc1[C@H](Cn1c(=O)n(C(C)(C)C(=O)NC(C)C)c(=O)c2c(C)c(-n3nccn3)sc21)OCCC#N [Compound I-136]
result: 5 to 10 nM

query: Request: IC50, test system human (hACC2) (Homo sapiens, UniProt O00763), entry COc1ccccc1[C@H](Cn1c(=O)n(C(C)(C)C(=O)NC(C)C)c(=O)c2c(C)c(-n3nccn3)sc21)OC1CCOCC1 [Compound I-16]
result: 5 to 10 nM

Others:
query: Request: IC50, test system human (hACC2) (Homo sapiens, UniProt O00763), entry COc1ccc(F)cc1[C@H](Cn1c(=O)n(CC(=O)N2CCCC2)c(=O)c2c(C)c(-n3nccn3)sc21)OCCO [Compound I-81]
result: 5 to 10 nM

query: Request: IC50, test system human (hACC2) (Homo sapiens, UniProt O00763), entry COc1ccc(F)cc1[C@H](Cn1c(=O)n(C(C)(C)C(=O)N2CCCCC2)c(=O)c2c(C)c(-n3nccn3)sc21)OCC(C)C [Compound I-11]
result: 10 to 40 nM

query: Request: IC50, test system human (hACC2) (Homo sapiens, UniProt O00763), entry COc1ccccc1[C@H](Cn1c(=O)n(C(C)(C)C(N)=O)c(=O)c2c(C)c(-n3nccn3)sc21)OC1CCOCC1 [Compound I-14]
result: 1 to 5 nM

query: Request: IC50, test system human (hACC2) (Homo sapiens, UniProt O00763), entry COCCCO[C@@H](Cn1c(=O)n([C@@H](C)C(=O)NC(C)C)c(=O)c2c(C)c(-n3nccn3)sc21)c1cc(F)ccc1OC [Compound I-86]
result: 10 to 40 nM

query: Request: IC50, test system human (hACC2) (Homo sapiens, UniProt O00763), entry COc1ccc(F)cc1[C@H](Cn1c(=O)n(C(C)(C)C(=O)NC(C)C)c(=O)c2c(C)c(-n3nccn3)sc21)OC1CCOCC1 [Compound I-23]
result: 5 to 10 nM

query: Request: IC50, test system human (hACC2) (Homo sapiens, UniProt O00763), entry COc1ccc(F)cc1[C@H](Cn1c(=O)n(C(C)(C)C(=O)NC(C)C)c(=O)c2c(C)c(-n3nccn3)sc21)OCCN(C)C [Compound I-76]
result: > 40 nM

query: Request: IC50, test system human (hACC2) (Homo sapiens, UniProt O00763), entry COCCOc1ccc(F)cc1[C@H](Cn1c(=O)n(C(C)(C)C(=O)NC(C)C)c(=O)c2c(C)c(-n3nccn3)sc21)OCCOC [Compound I-122]
result: 10 to 40 nM

query: Request: IC50, test system human (hACC2) (Homo sapiens, UniProt O00763), entry COCCOc1ccc(F)cc1[C@H](Cn1c(=O)n(C(C)(C)C(=O)N2CCCC2)c(=O)c2c(C)c(-n3nccn3)sc21)OC1CCOCC1 [Compound I-109]
result: 1 to 5 nM

query: Request: IC50, test system human (hACC2) (Homo sapiens, UniProt O00763), entry COc1ccc(F)cc1[C@H](Cn1c(=O)n(C(C)(C)C(=O)NC(C)C)c(=O)c2c(C)c(-n3nccn3)sc21)OCCC(C)(C)O [Compound I-168]
result: 5 to 10 nM

query: Request: IC50, test system human (hACC2) (Homo sapiens, UniProt O00763), entry COCCOc1ccc(F)cc1[C@H](Cn1c(=O)n(C(C)(C)C(=O)NC(C)C)c(=O)c2c(C)c(-n3nccn3)sc21)OC1CCOCC1 [Compound I-61]
result: 5 to 10 nM

query: Request: IC50, test system human (hACC2) (Homo sapiens, UniProt O00763), entry COc1ccc(F)cc1[C@H](Cn1c(=O)n(CC(=O)NC(C)C)c(=O)c2c(C)c(-n3nccn3)sc21)OC(C)C [Compound I-35]
result: 1 to 5 nM
